# Assay Text: Plasma stability, mouse plasma
# Conditions: mouse plasma, 37° C., timepoint 0 h; calibration range 0.1 to 10 μM
Bridge positions count the residues as written; N and C are the ends. Peptide text beside a SMILES is read from it.
Assay Endpoint: Tube 1 (compound concentration) (x)

[[record]]
molecule = "CC(=O)N1CCC[C@H]1C(=O)N[C@@H](CO)C(=O)N[C@@H](CCCNC(=N)N)C(=O)N[C@@H](CC(C)C)C(=O)N[C@@H](CCC(=O)O)C(=O)N[C@H]1CCCCNC(=O)CC[C@@H](C(=O)N[C@@H](CCCNC(=N)N)C(=O)N[C@@H](CC(C)C)C(=O)N[C@H](C(=O)N[C@@H](CCC(=O)O)C(N)=O)[C@@H](C)O)NC(=O)[C@H](CCCNC(=N)N)NC(=O)[C@H](CC(C)C)NC(=O)[C@H](CCC(=O)O)NC1=O [SD15805] (Ac-PSRLEKELRERLTE-NH2; lactam 6-10)"
assay_endpoint = "Tube 1 (compound concentration)"
units = "x"
value = 2.583

[[record]]
molecule = "CC(=O)N1CCC[C@H]1C(=O)N[C@@H](CO)C(=O)N[C@@H](CCCNC(=N)N)C(=O)N[C@@H](CC(C)C)C(=O)N[C@H]1CCC(=O)NCCCC[C@@H](C(=O)N[C@@H](CCCNC(=N)N)C(=O)N[C@@H](CCCNC(=N)N)C(=O)N[C@@H](CC(C)C)C(=O)N[C@H](C(=O)N[C@@H](CCC(=O)O)C(N)=O)[C@@H](C)O)NC(=O)[C@H](CC(C)C)NC(=O)[C@H](CCC(=O)O)NC(=O)[C@H](CCC(=O)O)NC1=O [SD15806] (Ac-PSRLEEELKRRLTE-NH2; lactam 5-9)"
assay_endpoint = "Tube 1 (compound concentration)"
units = "x"
value = 3.000


----------
# Assay Text: Plasma stability, mouse plasma
# Conditions: mouse plasma, 37° C., timepoint 2 h
Bridge positions count the residues as written; N and C are the ends. Peptide text beside a SMILES is read from it.
Listed below: Tube 3 (compound concentration) values for each entry.
Assay Endpoint: Tube 3 (compound concentration)

[[record]]
compound = "CC(=O)N[C@@H](CO)C(=O)N[C@@H](CCCNC(=N)N)C(=O)N[C@@H](CC(C)C)C(=O)N[C@@H](CCC(=O)O)C(=O)N[C@H]1CC(=O)NCCCC[C@@H](C(=O)N[C@@H](CCCNC(=N)N)C(=O)N[C@@H](CC(C)C)C(=O)N[C@H](C(=O)N[C@@H](CCC(=O)O)C(N)=O)[C@@H](C)O)NC(=O)[C@H](CCCNC(=N)N)NC(=O)[C@H](CC(C)C)NC(=O)[C@H](CCC(=O)O)NC1=O [SD15196] (Ac-SRLEDELRKRLTE-NH2; lactam 5-9)"
value = 2.237

[[record]]
compound = "CC(=O)N[C@@H](CO)C(=O)N[C@@H](CCCNC(=N)N)C(=O)N[C@@H](CC(C)C)C(=O)N[C@@H](CCC(=O)O)C(=O)N[C@H]1CCC(=O)NCCCC[C@@H](C(=O)N[C@@H](CCCNC(=N)N)C(=O)N[C@@H](CCCNC(=N)N)C(=O)N[C@@H](CC(C)C)C(=O)N[C@H](C(=O)N[C@@H](CCC(=O)O)C(N)=O)[C@@H](C)O)NC(=O)[C@H](CC(C)C)NC(=O)[C@H](CCC(=O)O)NC1=O [SD15192] (Ac-SRLEEELKRRLTE-NH2; lactam 5-8)"
value = 2.33

[[record]]
compound = "CC(=O)N[C@@H](CO)C(=O)N[C@@H](CCCNC(=N)N)C(=O)N[C@@H](CC(C)C)C(=O)N[C@@H](CCC(=O)O)C(=O)N[C@@H](CCC(=O)O)C(=O)N[C@@H](CCC(=O)O)C(=O)N[C@@H](CC(C)C)C(=O)N[C@@H](CCCNC(=N)N)C(=O)N[C@H]1CCCCNC(=O)CC[C@@H](C(N)=O)NC(=O)[C@H]([C@@H](C)O)NC(=O)[C@H](CC(C)C)NC(=O)[C@H](CCCNC(=N)N)NC1=O [SD15193] (Ac-SRLEEELRKRLTE-NH2; lactam 9-13)"
value = 2.789

[[record]]
compound = "CC(=O)N[C@@H](CO)C(=O)N[C@@H](CCCNC(=N)N)C(=O)N[C@@H](CC(C)C)C(=O)N[C@@H](CCC(=O)O)C(=O)N[C@H]1CCC(=O)NCCCC[C@@H](C(=O)N[C@@H](CCCNC(=N)N)C(=O)N[C@@H](CC(C)C)C(=O)N[C@H](C(=O)N[C@@H](CCC(=O)O)C(N)=O)[C@@H](C)O)NC(=O)[C@H](CCCNC(=N)N)NC(=O)[C@H](CC(C)C)NC(=O)[C@H](CCC(=O)O)NC1=O [SD15194] (Ac-SRLEEELRKRLTE-NH2; lactam 5-9)"
value = 2.373

